- test name: Phase 1 pharmacokinetics in healthy human volunteers
- Assay type: in vivo
- cond: human, blood, intravenous, 1.2 g PFC/kg, Table VII; 1.2 g PFC/kg; read-out: t1/2. 12 h (initial elimination half-life within the first 12 h post dose) (converted)
# key: entry, value: half-life
measure: half-life (h)

{"molecule": "FC(F)(F)C(F)(F)C(F)(F)C(F)(F)C(F)(F)C(F)(F)C(F)(F)C(F)(F)Br [PFOB, perfluorooctyl bromide]", "measure": "half-life", "recorded measurement": 6.55}
{"molecule": "FC(F)(F)C(F)(F)C(F)(F)C(F)(F)C(F)(F)C(F)(F)C(F)(F)C(F)(F)C(F)(F)C(F)(F)Br [PFDB, perfluorodecyl bromide]", "measure": "half-life", "recorded measurement": 13.7}

###

- test name: pharmacokinetics in blood after single intravenous administration of the emulsion of Ex. VI
- Format: in vivo, Sprague Dawley rats
- cond: female, Sprague-Dawley, rat, blood, iv, 3.6 g/kg, female rats, 3.6 g PFC/kg single iv, blood; last 3 or 4 data points; read-out: T1/2 (converted)

{"compound": "FC(F)(F)C(F)(F)C(F)(F)C(F)(F)C(F)(F)C(F)(F)C(F)(F)C(F)(F)Br [PFOB, perfluorooctyl bromide]", "readout units": "days", "half-life": 5.14}

###

- test name: pharmacokinetics in blood after single intravenous administration of the emulsion of Ex. VI
- Assay type: in vivo, Sprague Dawley rats
- cond: Sprague-Dawley, rat, 1.8 g/kg; male rats, 1.8 g PFC/kg single iv, blood; read-out: MRT(0-last)

{"compound": "FC(F)(F)C(F)(F)C(F)(F)C(F)(F)C(F)(F)C(F)(F)C(F)(F)C(F)(F)C(F)(F)C(F)(F)Br [PFDB, perfluorodecyl bromide]", "readout units": "days", "MRT last": 13.8}

###

- test name: pharmacokinetics in subjects undergoing CABG surgery with hypothermic CPB
- Assay type: in vivo, human
- cond: human, whole blood, other: directly into the bypass oxygenator, 2.7 g PFC/kg, read-out: CL (whole blood clearance) (converted)
- Method: The pharmacokinetics of PFOB and PFDB were determined after the administration of the fluorocarbon formulation taught in Example VI to human subjects undergoing coronary artery bypass grafting or CABG surgery with hypothermic cardiopulmonary bypass. In group 1 and in group 2, human subjects received the fluorocarbon emulsion (2.7 g PFC/kg) as taught in Example VI directly into the bypass oxygenator after being put on bypass but before cooling was begun. […]
Consider the following compounds and their measured clearance readings.
measure: clearance (mL/min/kg)

{"compound": "FC(F)(F)C(F)(F)C(F)(F)C(F)(F)C(F)(F)C(F)(F)C(F)(F)C(F)(F)C(F)(F)C(F)(F)Br [PFDB, perfluorodecyl bromide]", "measure": "clearance", "recorded measurement": 0.113}
{"compound": "FC(F)(F)C(F)(F)C(F)(F)C(F)(F)C(F)(F)C(F)(F)C(F)(F)C(F)(F)Br [PFOB, perfluorooctyl bromide]", "measure": "clearance", "recorded measurement": 0.165}

###

- test name: pharmacokinetics in blood after single intravenous administration of the emulsion of Ex. VI
- Format: in vivo, Sprague Dawley rats
- cond: both sexes, Sprague-Dawley, rat, blood, iv, 1.8 g/kg, male and female rats, 1.8 g PFC/kg; read-out: average terminal t1/2 (converted)

{"compound": "FC(F)(F)C(F)(F)C(F)(F)C(F)(F)C(F)(F)C(F)(F)C(F)(F)C(F)(F)Br [PFOB, perfluorooctyl bromide]", "half-life": "~73 h"}
